These measurements were taken from patent US20150005347A1.

system: Laodelphax striatella; test: Pest control test of Laodelphax striatella, soil irrigation treatment of rice seedling; format: in vivo; settings: soil irrigation treatment, 0.01 mg/pot
value.kind: % Mortality, Test Example 10 Laodelphax striatella (%)

>>> value_observed("FC(F)(F)C(=S)/N=c1\\ccccn1Cc1ccc(Cl)nc1 [Compound 1-20]")
91
>>> value_observed("FC(F)C(=S)N=c1ccccn1Cc1ccc(Cl)nc1 [Compound 1-21]")
20
>>> value_observed("FC(F)(F)C(=S)N=c1ccccn1Cc1ccc(Br)nc1 [Compound 4-20]")
100
>>> value_observed("Fc1cc(Cn2ccccc2=NC(=S)C(F)(F)F)cnc1Cl [Compound 5-20]")
52
